biological target: Peroxisome proliferator-activated receptor gamma (Homo sapiens) (UniProt P37231); test: Agonist activity at PPAR gamma (unknown origin) transfected in HEK293 cells at 1 uM after 24 hrs by dual-luciferase reporter gene assay; type: cell-based
Sequence (P37231 whole entry): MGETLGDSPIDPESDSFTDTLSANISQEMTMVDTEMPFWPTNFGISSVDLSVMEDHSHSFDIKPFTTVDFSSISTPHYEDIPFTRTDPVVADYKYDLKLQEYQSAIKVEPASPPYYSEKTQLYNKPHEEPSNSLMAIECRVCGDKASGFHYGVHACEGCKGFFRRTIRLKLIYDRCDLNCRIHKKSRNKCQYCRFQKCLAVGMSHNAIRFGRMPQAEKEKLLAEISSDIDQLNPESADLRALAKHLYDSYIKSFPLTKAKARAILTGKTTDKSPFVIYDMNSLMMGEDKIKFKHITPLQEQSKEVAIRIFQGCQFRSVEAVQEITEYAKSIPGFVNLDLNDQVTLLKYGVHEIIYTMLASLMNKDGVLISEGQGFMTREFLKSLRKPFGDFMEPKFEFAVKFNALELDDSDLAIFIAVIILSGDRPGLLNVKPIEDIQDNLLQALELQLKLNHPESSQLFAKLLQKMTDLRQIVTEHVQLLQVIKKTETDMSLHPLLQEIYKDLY
Activity calls are given as the source filed them. The rule behind the calls is not given here.
Labels: active, inactive

>  <Compound>
CCOC(=O)CCO

>  <Class Assignment>
active

$$$$
>  <Compound>
CCOP(=O)(O)CCO

>  <Class Assignment>
inactive

$$$$
>  <Compound>
CN(CCOc1ccc(CC2SC(=O)NC2=O)cc1)c1ccccn1 (stereo not given)

>  <Class Assignment>
active

$$$$
>  <Compound>
O=P(O)(O)CCO

>  <Class Assignment>
inactive

$$$$
>  <Compound>
CCOP(=O)(CCO)OCC

>  <Class Assignment>
inactive

$$$$

###

Molecular target: Peroxisome proliferator-activated receptor alpha (Homo sapiens) (UniProt Q07869)
Sequence (whole entry): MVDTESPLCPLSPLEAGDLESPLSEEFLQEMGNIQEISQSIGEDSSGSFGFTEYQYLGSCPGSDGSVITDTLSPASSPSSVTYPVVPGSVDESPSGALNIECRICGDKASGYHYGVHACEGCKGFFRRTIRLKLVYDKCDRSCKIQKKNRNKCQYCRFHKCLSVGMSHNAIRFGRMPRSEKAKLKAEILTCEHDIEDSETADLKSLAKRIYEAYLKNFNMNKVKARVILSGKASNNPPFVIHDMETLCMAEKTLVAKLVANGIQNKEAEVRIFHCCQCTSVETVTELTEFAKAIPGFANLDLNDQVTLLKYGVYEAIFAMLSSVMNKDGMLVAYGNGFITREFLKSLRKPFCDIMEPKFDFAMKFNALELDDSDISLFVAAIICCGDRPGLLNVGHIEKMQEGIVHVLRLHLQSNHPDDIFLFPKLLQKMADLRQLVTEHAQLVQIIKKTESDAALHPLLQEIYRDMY
Assay: Agonist activity at PPAR alpha (unknown origin) transfected in HEK293 cells at 1 uM after 24 hrs by dual-luciferase reporter gene assay
Type: cell-based
Calls of active or inactive are those of the source. The calls are words filed in the database; no cut-off is given here.
Labels: active, inactive

>  <Compound Structure String>
CCOP(=O)(O)CCO

>  <Class Assignment>
inactive

$$$$
>  <Compound Structure String>
CCOC(=O)CCO

>  <Class Assignment>
active

$$$$
>  <Compound Structure String>
O=P(O)(O)CCO

>  <Class Assignment>
inactive

$$$$
>  <Compound Structure String>
Cc1cccc(Nc2cc(Cl)nc(SCC(=O)O)n2)c1C

>  <Class Assignment>
active

$$$$
>  <Compound Structure String>
CCOP(=O)(CCO)OCC

>  <Class Assignment>
inactive

$$$$

###

target: Peroxisome proliferator-activated receptor delta (Homo sapiens, UniProt Q03181); assay: Agonist activity at PPAR delta (unknown origin) transfected in HEK293 cells after 24 hrs by dual-luciferase reporter gene assay; assay type: cell-based
Sequence (Q03181 whole entry): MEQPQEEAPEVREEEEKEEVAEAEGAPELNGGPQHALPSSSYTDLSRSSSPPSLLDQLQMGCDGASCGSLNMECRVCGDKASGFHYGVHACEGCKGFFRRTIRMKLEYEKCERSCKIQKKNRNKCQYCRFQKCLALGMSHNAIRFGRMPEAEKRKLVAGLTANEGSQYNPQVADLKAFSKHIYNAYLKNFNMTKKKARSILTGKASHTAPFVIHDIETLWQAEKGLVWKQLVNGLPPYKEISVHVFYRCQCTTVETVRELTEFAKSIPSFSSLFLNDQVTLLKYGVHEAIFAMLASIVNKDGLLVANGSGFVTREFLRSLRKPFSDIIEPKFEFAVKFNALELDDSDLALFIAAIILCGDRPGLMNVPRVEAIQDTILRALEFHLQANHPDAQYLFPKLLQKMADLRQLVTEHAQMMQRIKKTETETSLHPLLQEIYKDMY
pEC50: −log10 of the molar value.

>  <Compound Structure String>
CCOP(=O)(O)CCO

>  <Result Operator>
=

>  <pEC50>
7.11

$$$$
>  <Compound Structure String>
O=P(O)(O)CCO

>  <Result Operator>
<

>  <pEC50>
4.00

$$$$
>  <Compound Structure String>
CCOP(=O)(CCO)OCC

>  <Result Operator>
=

>  <pEC50>
6.95

$$$$
>  <Compound Structure String>
CCOC(=O)CCO

>  <Result Operator>
<

>  <pEC50>
6.00

$$$$
>  <Compound Structure String>
O=P(O)(OCO)OCCC#CC#CCCCCCC/C=C/I

>  <Result Operator>
<

>  <pEC50>
5.00

$$$$
>  <Compound Structure String>
O=P(O)(CCO)OCCC#CC#CCCCCCC/C=C/I

>  <Result Operator>
=

>  <pEC50>
7.62

$$$$
